Could you please report measured pIC50 for the items listed next?
System: Monoglyceride lipase (Mus musculus)
Experiment Description: Inhibition of MAGL in mouse brain membrane
Numbers only, as −log10 of the molar value.

O=C(Oc1ccc([N+](=O)[O-])cc1)N1CCN(Cc2ccc(-c3ccccc3)o2)CC1 ... 7.05

For each of the compounds below, state pIC50.
1. COc1ccc(Oc2cccc(CN3CCN(C(=O)Oc4ccc([N+](=O)[O-])cc4)CC3)c2)cc1
2. COc1ccc(C(c2ccc(OC)cc2)C2CCN(C(=O)Oc3ccc([N+](=O)[O-])cc3)CC2)cc1
3. COc1cc(OCc2ccccc2)ccc1CN1CCN(C(=O)Oc2ccc([N+](=O)[O-])cc2)CC1

Output:
[6.89, 7.14, 7.05]

====

System: Monoglyceride lipase (Mus musculus, UniProt O35678)
Sequence (O35678 whole entry): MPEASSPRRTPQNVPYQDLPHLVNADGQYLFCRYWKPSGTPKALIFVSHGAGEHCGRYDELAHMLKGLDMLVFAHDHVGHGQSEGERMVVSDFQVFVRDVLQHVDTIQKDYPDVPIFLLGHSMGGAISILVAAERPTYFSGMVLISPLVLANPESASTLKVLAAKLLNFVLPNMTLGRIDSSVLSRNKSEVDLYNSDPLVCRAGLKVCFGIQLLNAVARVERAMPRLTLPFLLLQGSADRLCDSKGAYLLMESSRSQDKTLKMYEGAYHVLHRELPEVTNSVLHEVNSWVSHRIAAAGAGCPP
Experiment Description: Inhibition of MAGL in mouse brain membrane
Hi! Could you tag entries with IC50 below 40 nM as criterion met, and those at or above as criterion not met? Much appreciated.

O=C(Oc1ccc([N+](=O)[O-])cc1)N1CCC(C(O)(c2ccc(Cl)cc2)c2ccc(Cl)cc2)CC1 ... criterion not met
O=C(Oc1ccc([N+](=O)[O-])cc1)N1CCN(Cc2ccc3ccccc3c2)CC1 ... criterion not met
O=C(Oc1ccc([N+](=O)[O-])cc1)N1CCN(Cc2cc(-c3ccccc3)cs2)CC1 ... criterion met

# evaluate next
Task: Would you kindly verify if IC50 of COc1cccc(C(O)(c2cccc(OC)c2)C2CCN(C(=O)Oc3ccc([N+](=O)[O-])cc3)CC2)c1 is strictly less than 40 nM?
Output: criterion not met
